The measurements presented in this section are drawn from the supplement of paper PMC10567573.

B1: CDS2 (parent)
chain: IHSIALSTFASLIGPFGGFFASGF

- Variants of: B1
- assayProcedure: protein stability index of a GFP-peptide fusion (GPS, HEK-293T) (PSI 1-6); higher = more stable;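 further: lentivirally expressed fusions sorted by FACS into six bins by GFP to DsRed ratio, PSI derived from sequencing read proportions per bin multiplied by bin number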
- testContext: c terminus: a fixed tail appended
experimentalEndpoint: protein stability index

> print(dat)
    mutantname     experimentalendpoint  measurednumber
 1        F24T  protein stability index            3.42
 2        G23Y  protein stability index            2.63
 3         I1L  protein stability index            2.63
 4         I1T  protein stability index            3.44
 5        A10M  protein stability index            3.11
 6         A5W  protein stability index            2.77
 7        G14R  protein stability index            2.97
 8        G17A  protein stability index            2.41
 9        S22R  protein stability index            3.24
10        L12Q  protein stability index            4.09
11        A10V  protein stability index            3.29
12        F16W  protein stability index            2.49
13        S22K  protein stability index            1.71
14        A10G  protein stability index            3.32
15         A5F  protein stability index            3.17
16         I4S  protein stability index            3.51
17        S22I  protein stability index             2.2
18        S11W  protein stability index            5.33
19        S11H  protein stability index            2.75
20        F19M  protein stability index            4.02
21         F9L  protein stability index            3.88
22         L6G  protein stability index            2.54
